Record form. Attribute: hERG current change (%, negative = inhibition) at 10uM. Fill in for each entry.
Target entity: human ether-à-go-go-related gene (hERG) potassium channel (human, UniProt Q12809);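 note: peak tail current of the secondary pulse compared with the same well before compound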
Sequence (Q12809 whole entry, looked up): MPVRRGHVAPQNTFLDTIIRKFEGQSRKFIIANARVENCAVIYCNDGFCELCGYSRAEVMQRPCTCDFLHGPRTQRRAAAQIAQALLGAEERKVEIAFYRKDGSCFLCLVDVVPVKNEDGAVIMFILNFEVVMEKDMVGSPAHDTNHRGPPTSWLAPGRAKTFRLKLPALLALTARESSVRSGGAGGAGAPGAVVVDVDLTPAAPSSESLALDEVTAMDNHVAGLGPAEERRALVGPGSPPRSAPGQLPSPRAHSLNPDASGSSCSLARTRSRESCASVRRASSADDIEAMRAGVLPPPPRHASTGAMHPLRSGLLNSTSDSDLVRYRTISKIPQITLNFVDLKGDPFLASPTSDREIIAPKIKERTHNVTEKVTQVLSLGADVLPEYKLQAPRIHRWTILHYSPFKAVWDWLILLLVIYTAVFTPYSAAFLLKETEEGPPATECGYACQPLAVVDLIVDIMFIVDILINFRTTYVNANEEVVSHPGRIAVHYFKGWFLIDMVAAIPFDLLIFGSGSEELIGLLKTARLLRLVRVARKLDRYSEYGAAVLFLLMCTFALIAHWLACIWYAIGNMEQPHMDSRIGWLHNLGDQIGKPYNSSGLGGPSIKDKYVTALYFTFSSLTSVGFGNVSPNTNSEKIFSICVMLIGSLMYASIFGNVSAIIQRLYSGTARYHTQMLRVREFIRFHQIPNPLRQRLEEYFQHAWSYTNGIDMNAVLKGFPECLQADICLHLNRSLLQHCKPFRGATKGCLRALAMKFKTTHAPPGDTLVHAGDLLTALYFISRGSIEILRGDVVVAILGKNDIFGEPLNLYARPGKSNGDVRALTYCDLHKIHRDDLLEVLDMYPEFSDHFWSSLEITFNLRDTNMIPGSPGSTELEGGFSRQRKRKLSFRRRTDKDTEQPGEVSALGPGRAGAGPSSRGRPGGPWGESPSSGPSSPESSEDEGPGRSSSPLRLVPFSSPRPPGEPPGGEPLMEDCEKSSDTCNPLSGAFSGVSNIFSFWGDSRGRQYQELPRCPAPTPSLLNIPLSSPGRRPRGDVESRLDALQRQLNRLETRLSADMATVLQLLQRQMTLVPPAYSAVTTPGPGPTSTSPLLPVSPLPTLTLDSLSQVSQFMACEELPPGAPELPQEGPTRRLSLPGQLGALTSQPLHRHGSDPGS
Assay info: primary screen, population patch clamp on CHO cells stably expressing hERG; higher = less effect of the substance
Protocol: Briefly, Chinese hamster ovary (CHO) cells stably expressing the hERG channel were dislodged from tissue culture flasks and dispensed into PPC plates. […] During the recording, background leak currents were estimated by a 100 ms step to -80 mV from an initial holding potential of -70 mV and subtracted from the subsequent current measurement. The campaign was conducted in two phases using slight differences in recording protocol. […]
Among all 310,000 compounds or so, about 14,000 (4.5%) showed an effect of 50% or more. The effect is printed as a negative number. The sample as a whole holds a higher share of strong results than the screen did.
One number for each entry, in %.

>>> print(df.to_string())
                                   molecule                             target_entity  result_units  reading
0  Cn1c(=O)c2c(nc(Sc3ncccn3)n2Cc2ccccc2Cl)n(C)c1=O  human ether-à-go-go-related gene (hERG) potassium channel (human, UniProt Q12809)             %     -8.1

Give measured hERG current change (%, negative = inhibition) at 10uM for every item shown.
1. COc1ccc(Cn2ccnc2)cc1[N+](=O)[O-]
2. O=C1C2C3C=CC(C2C(=O)N1c1ccc(O)cc1)C1C2C(=O)N(c4ccc(O)cc4)C(=O)C2C31 (stereo not shown)
3. CN1/C(=C\C=N\O)C(C)(C)c2ccccc21
4. COCCn1c(SCC#N)nnc1-c1ccc2c(c1)OCO2
5. Cn1ccnc1SCC(=O)n1c2c(c3ccccc31)CCCC2

[-0.186, -10.7, 17.1, -24.2, -4.61]

====

Please provide measured hERG current change (%, negative = inhibition) at 10uM for the entries that follow.
Target entity: human ether-à-go-go-related gene (hERG) potassium channel (human, UniProt Q12809);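 note: peak tail current of the secondary pulse compared with the same well before compound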
Assay info: primary screen, population patch clamp on CHO cells stably expressing hERG; higher = less effect of the substance
Hit rate of the full screen: of about 310,000 compounds, about 14,000 (4.5%) showed an effect of 50% or more. Effects have a minus sign here. This excerpt belongs to a sample that is enriched for strong results.
Answers are plain numbers, in %.

Example results:
                      smiles_representation  reading
0     CC(C)C(=O)c1cn(Cc2ccccc2C#N)c2ccccc12    -10.8
1            Cc1ccc(Cn2cc(C=O)c3ccccc32)cc1     1.48
2  O=C(c1ccco1)c1cn(Cc2ccc(Cl)cc2)c2ccccc12     15.9
3   CC(C)C(=O)c1cn(Cc2ccc(C#N)cc2)c2ccccc12    -75.6

// each molecule listed below needs its hERG current change (%, negative = inhibition) at 10uM
1. CC(C)C(=O)c1cn(CC(=O)O)c2ccccc12
2. O=C(CSc1nnc(COc2ccccc2)n1Cc1ccco1)c1ccc(F)cc1
3. O=Cc1cn(Cc2ccc(Br)cc2)c2ccccc12
4. Cc1cc(Cl)ccc1NC(=O)CN1C(=O)CSc2ccc(S(=O)(=O)N3CCOCC3)cc21
5. N#Cc1ccc(Cn2cc(C(=O)c3ccco3)c3ccccc32)cc1
6. N#Cc1ccc(Cn2cc(C=O)c3ccccc32)cc1

[8.27, -21.1, 15, -18.7, -76.7, -80.8]
